compounds and their reported relative viability
- Tested on: NCI-H2347
- test.name: relative viability (nuclei count vs DMSO), 5 days (fraction); higher = more cells survive
- stated.conditions: first compound 2.53 µM
readout.label: relative viability

>>> quantitative_readout("Cc1cnc(-c2cnc(NCCNc3ccc(C#N)cn3)nc2-c2ccc(Cl)cc2Cl)[nH]1 + CC(=O)c1c(C)c2cnc(Nc3ccc(N4CCNCC4)cn3)nc2n(C2CCCC2)c1=O [Palbociclib] (partner 0.5 µM)")
0.493
>>> quantitative_readout("Cc1cnc(-c2cnc(NCCNc3ccc(C#N)cn3)nc2-c2ccc(Cl)cc2Cl)[nH]1 + O=C(c1cc(Cc2n[nH]c(=O)c3ccccc23)ccc1F)N1CCN(C(=O)C2CC2)CC1 [Olaparib] (partner 8 µM)")
0.587
>>> quantitative_readout("O=c1[nH]c2ccccc2n1C1CCN(CCCC(c2ccc(F)cc2)c2ccc(F)cc2)CC1 [Pimozide] + COc1cccc2cc(-c3nc([C@H]4CC[C@H](C(=O)O)CC4)n4ncnc(N)c34)[nH]c12 [OSI-027] (partner 0.5 µM)")
0.39
>>> quantitative_readout("O=c1[nH]c2ccccc2n1C1CCN(CCCC(c2ccc(F)cc2)c2ccc(F)cc2)CC1 [Pimozide] + CS(=O)(=O)N1CCN(Cc2cc3nc(-c4cccc5[nH]ncc45)nc(N4CCOCC4)c3s2)CC1 [Pictilisib] (partner 1 µM)")
0.605

----------
- Tested on: RERF-LC-KJ
- test.name: relative viability (nuclei count vs DMSO), 5 days (fraction); higher = more cells survive
- stated.conditions: first compound 0.4 µM
molecules and their reported relative viability
readout.label: relative viability

>>> quantitative_readout("Cc1sc2c(c1C)C(c1ccc(Cl)cc1)=N[C@@H](CC(=O)OC(C)(C)C)c1nnc(C)n1-2 [JQ1] + Cc1cc(Nc2cc(N3CCN(C)CC3)nc(Sc3ccc(NC(=O)C4CC4)cc3)n2)n[nH]1 [Tozasertib] (partner 0.1 µM)")
0.315
>>> quantitative_readout("Cc1sc2c(c1C)C(c1ccc(Cl)cc1)=N[C@@H](CC(=O)OC(C)(C)C)c1nnc(C)n1-2 [JQ1] + C[C@@H](Oc1cc(-c2cnn(C3CCNCC3)c2)cnc1N)c1c(Cl)ccc(F)c1Cl [Crizotinib] (partner 1 µM)")
0.777
>>> quantitative_readout("Cc1sc2c(c1C)C(c1ccc(Cl)cc1)=N[C@@H](CC(=O)OC(C)(C)C)c1nnc(C)n1-2 [JQ1] + CC(=O)Nc1cccc(-n2c(=O)n(C3CC3)c(=O)c3c(Nc4ccc(I)cc4F)n(C)c(=O)c(C)c32)c1 [Trametinib] (partner 0.02 µM)")
0.817
>>> quantitative_readout("Cc1sc2c(c1C)C(c1ccc(Cl)cc1)=N[C@@H](CC(=O)OC(C)(C)C)c1nnc(C)n1-2 [JQ1] + Nc1nc2[nH]cc(CCc3ccc(C(=O)N[C@@H](CCC(=O)O)C(=O)O)cc3)c2c(=O)[nH]1 [Pemetrexed] (partner 0.2 µM)")
0.46
>>> quantitative_readout("Cc1sc2c(c1C)C(c1ccc(Cl)cc1)=N[C@@H](CC(=O)OC(C)(C)C)c1nnc(C)n1-2 [JQ1] + O=C(CCCCCCC(=O)Nc1ccccc1)NO [Vorinostat] (partner 1 µM)")
0.44
>>> quantitative_readout("Cc1sc2c(c1C)C(c1ccc(Cl)cc1)=N[C@@H](CC(=O)OC(C)(C)C)c1nnc(C)n1-2 [JQ1] + Cc1nc(Nc2ncc(C(=O)Nc3c(C)cccc3Cl)s2)cc(N2CCN(CCO)CC2)n1 [Dasatinib] (partner 0.075 µM)")
0.72

Data origin: the supplement of paper PMC10307832
